- TGT: ETV6-TRKC (Homo sapiens, UniProt Q16288)
- Construct: ETV6 (fusion partner, N-terminal part); the other entry of the earlier key: ETV6 (P41212, Transcription factor ETV6)
- Sequence (Q16288 530-825 isoform Q16288-3 limits assumed): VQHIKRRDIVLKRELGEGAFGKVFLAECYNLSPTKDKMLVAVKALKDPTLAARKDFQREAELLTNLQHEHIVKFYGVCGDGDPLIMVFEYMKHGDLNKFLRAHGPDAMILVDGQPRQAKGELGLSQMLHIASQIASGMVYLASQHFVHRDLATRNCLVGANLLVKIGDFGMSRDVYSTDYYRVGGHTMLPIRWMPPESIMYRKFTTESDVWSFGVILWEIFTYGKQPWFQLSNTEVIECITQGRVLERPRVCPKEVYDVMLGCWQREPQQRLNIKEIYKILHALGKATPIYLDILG
- TEST_METHOD_NOTES: Engineered Ba/F3 cell proliferation inhibition (MTS), ETV6-TRKC
- REPORTED_CONDITIONS: Ba/F3-ETV6-TRKC cells, 72 h
RECORDED_METRIC: log10 of IC50 (log10 of the value in nM)

[
  {
    "COMPOUND": "O=C(Nc1cnn2ccc(N3CC[C@H]4C[C@]43c3cc(F)ccc3F)nc12)c1ccc(F)cn1 [Example 19]",
    "VALUE_REPORTED": 0.00
  },
  {
    "COMPOUND": "CC(C)(C)c1nnc(-c2cnn3ccc(N4CC[C@H]5C[C@]54c4cc(F)ccc4F)nc23)s1 [Example 27]",
    "VALUE_REPORTED": 1.04
  },
  {
    "COMPOUND": "Cc1cccnc1C(=O)Nc1cnn2ccc(N3CC[C@H]4C[C@]43c3cc(F)ccc3F)nc12 [Example 17]",
    "VALUE_REPORTED": 0.00
  },
  {
    "COMPOUND": "O=C(Nc1cnn2ccc(N3CC[C@H]4C[C@]43c3cc(F)ccc3F)nc12)N1CCC(F)(F)C1 [Example 12]",
    "VALUE_REPORTED": 0.95
  },
  {
    "COMPOUND": "Cc1ccc(C(=O)Nc2cnn3ccc(N4CC[C@H]5C[C@]54c4cc(F)ccc4F)nc23)nc1 [Example 18]",
    "VALUE_REPORTED": 0.00
  },
  {
    "COMPOUND": "O=C(Nc1cnc2ccc(N3CC[C@H]4C[C@]43c3cc(F)ccc3F)nn12)N1CC[C@@H](O)C1 [Example 8]",
    "VALUE_REPORTED": 0.70
  },
  {
    "COMPOUND": "CO[C@H]1CCN(C(=O)Nc2cnn3ccc(N4CC[C@H]5C[C@]54c4cc(F)ccc4F)nc23)C1 [Example 9]",
    "VALUE_REPORTED": 0.60
  },
  {
    "COMPOUND": "O=C(Nc1cnc2ccc(N3CC[C@H]4C[C@]43c3cc(F)ccc3F)nn12)N1CC[C@H](O)C1 [Example 4]",
    "VALUE_REPORTED": 0.00
  }
]
